- Tested on: VDR:RXRa (NR concentration 270 nM, RXRa partner concentration 90 nM)
- protocolNotes: PBM binding z-score (relative to random genomic background probes); higher = stronger binding; sequences stand for … in GC…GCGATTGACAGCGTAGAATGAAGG
Below: a set of entries, each annotated with reported PBM binding z-score.
Give the figure only, with no unit attached.

Some sequences with known PBM binding z-score results, for comparison:
[[record]]
biosequence = "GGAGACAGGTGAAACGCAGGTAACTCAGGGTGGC"
resultnumber = -0.319

[[record]]
biosequence = "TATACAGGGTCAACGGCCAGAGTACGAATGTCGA"
resultnumber = 4.6

[[record]]
biosequence = "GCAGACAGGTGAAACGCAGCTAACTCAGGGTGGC"
resultnumber = -0.847

[[record]]
biosequence = "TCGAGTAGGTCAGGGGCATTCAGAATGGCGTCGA"
resultnumber = 1.55


PBM binding z-score in this record for `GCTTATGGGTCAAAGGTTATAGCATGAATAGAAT` : 4.82

PBM binding z-score in this record for `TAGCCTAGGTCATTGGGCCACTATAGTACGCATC` : 2.23

PBM binding z-score in this record for `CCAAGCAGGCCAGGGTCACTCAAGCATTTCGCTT` : 2.55

PBM binding z-score in this record for `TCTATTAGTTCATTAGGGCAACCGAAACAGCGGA` : 2.2

PBM binding z-score in this record for `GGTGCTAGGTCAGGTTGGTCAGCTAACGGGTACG` : 1.25

PBM binding z-score in this record for `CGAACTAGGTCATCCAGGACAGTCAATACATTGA` : 4.83

PBM binding z-score in this record for `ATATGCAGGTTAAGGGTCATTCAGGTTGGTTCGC` : 5.68

PBM binding z-score in this record for `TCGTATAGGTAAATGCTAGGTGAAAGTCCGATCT` : 0.443

PBM binding z-score in this record for `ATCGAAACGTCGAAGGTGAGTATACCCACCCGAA` : -0.229

----------
- Test system: PPARa:RXRa (NR concentration 270 nM, RXRa partner concentration 90 nM)
- protocolNotes: PBM binding z-score (relative to random genomic background probes); higher = stronger binding; sequences stand for … in GC…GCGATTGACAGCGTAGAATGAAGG
observationType: PBM binding z-score
Give the figure only, with no unit attached.

Some sequences with known PBM binding z-score results, for comparison:
[[record]]
biosequence = "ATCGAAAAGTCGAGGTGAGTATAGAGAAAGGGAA"
assayedtarget = "PPARa:RXRa (NR concentration 270 nM, RXRa partner concentration 90 nM)"
resultnumber = 0.326

[[record]]
biosequence = "GCTCGGCGGACAAGGTCAGAGCTTTGTCCGTAGA"
assayedtarget = "PPARa:RXRa (NR concentration 270 nM, RXRa partner concentration 90 nM)"
resultnumber = 2.03


PBM binding z-score in this record for `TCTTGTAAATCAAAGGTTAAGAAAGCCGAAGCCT` : 3.08

PBM binding z-score in this record for `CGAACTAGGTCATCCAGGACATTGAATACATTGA` : 5.11

PBM binding z-score in this record for `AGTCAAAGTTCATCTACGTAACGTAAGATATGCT` : 4.77

PBM binding z-score in this record for `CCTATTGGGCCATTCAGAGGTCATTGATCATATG` : 3.65

PBM binding z-score in this record for `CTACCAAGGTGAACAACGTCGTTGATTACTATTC` : 1.29

PBM binding z-score in this record for `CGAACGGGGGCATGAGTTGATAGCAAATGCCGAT` : 3.99

PBM binding z-score in this record for `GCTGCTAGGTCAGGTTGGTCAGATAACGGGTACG` : 1.5

PBM binding z-score in this record for `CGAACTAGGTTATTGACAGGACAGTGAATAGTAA` : 2.09

PBM binding z-score in this record for `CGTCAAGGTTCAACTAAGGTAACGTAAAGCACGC` : 4.18

PBM binding z-score in this record for `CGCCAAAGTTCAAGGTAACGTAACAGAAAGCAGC` : 5.17

PBM binding z-score in this record for `CCGACTGGGGCATAAGGCTACCATAAGCCAGCCC` : 0.356

----------
- Test system: THRa homodimer (NR concentration 90 nM)
- protocolNotes: PBM binding z-score (relative to random genomic background probes); higher = stronger binding; sequences stand for … in GC…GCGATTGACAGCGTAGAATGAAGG
Mark 0 (no) for PBM binding z-score values under 0.2, and 1 (yes) for everything at or above.

[[record]]
biosequence = "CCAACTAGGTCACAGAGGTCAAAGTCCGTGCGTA"
label = "1 (yes)"

[[record]]
biosequence = "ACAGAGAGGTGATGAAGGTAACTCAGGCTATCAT"
label = "1 (yes)"

[[record]]
biosequence = "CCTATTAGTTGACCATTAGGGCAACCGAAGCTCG"
label = "1 (yes)"


INPUT: Check this sequence for PBM binding z-score at or above 0.2: `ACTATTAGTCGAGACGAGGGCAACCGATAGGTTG`
OUTPUT: 0 (no)

INPUT: Check this sequence for PBM binding z-score at or above 0.2: `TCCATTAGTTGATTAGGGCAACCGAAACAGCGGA`
OUTPUT: 1 (yes)

INPUT: Check this sequence for PBM binding z-score at or above 0.2: `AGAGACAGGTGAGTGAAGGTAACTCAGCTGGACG`
OUTPUT: 0 (no)

INPUT: Check this sequence for PBM binding z-score at or above 0.2: `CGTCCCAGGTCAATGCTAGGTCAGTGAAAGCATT`
OUTPUT: 1 (yes)

INPUT: Check this sequence for PBM binding z-score at or above 0.2: `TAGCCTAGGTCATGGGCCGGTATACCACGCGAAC`
OUTPUT: 1 (yes)

INPUT: Check this sequence for PBM binding z-score at or above 0.2: `CCTCGGAGGACAAAAGGTCAGAGCTGTCCGCTTT`
OUTPUT: 1 (yes)

INPUT: Check this sequence for PBM binding z-score at or above 0.2: `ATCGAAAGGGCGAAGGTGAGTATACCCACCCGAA`
OUTPUT: 0 (no)

INPUT: Check this sequence for PBM binding z-score at or above 0.2: `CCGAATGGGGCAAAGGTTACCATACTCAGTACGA`
OUTPUT: 0 (no)

----------
- Test system: PPARg:RXRa IVT, anti-PPARg (NR concentration 270 nM, RXRa partner concentration 90 nM)
- protocolNotes: PBM binding z-score (relative to random genomic background probes); higher = stronger binding; sequences stand for … in GC…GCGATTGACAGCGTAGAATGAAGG
observationType: PBM binding z-score
Give the figure only, with no unit attached.

[[record]]
biosequence = "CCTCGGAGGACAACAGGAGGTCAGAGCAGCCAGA"
assayedtarget = "PPARg:RXRa IVT, anti-PPARg (NR concentration 270 nM, RXRa partner concentration 90 nM)"
observationtype = "PBM binding z-score"
resultnumber = 0.388

[[record]]
biosequence = "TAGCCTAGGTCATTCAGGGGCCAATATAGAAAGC"
assayedtarget = "PPARg:RXRa IVT, anti-PPARg (NR concentration 270 nM, RXRa partner concentration 90 nM)"
observationtype = "PBM binding z-score"
resultnumber = 2.85

[[record]]
biosequence = "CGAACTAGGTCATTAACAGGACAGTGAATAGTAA"
assayedtarget = "PPARg:RXRa IVT, anti-PPARg (NR concentration 270 nM, RXRa partner concentration 90 nM)"
observationtype = "PBM binding z-score"
resultnumber = 7.96

[[record]]
biosequence = "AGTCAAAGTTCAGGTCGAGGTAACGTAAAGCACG"
assayedtarget = "PPARg:RXRa IVT, anti-PPARg (NR concentration 270 nM, RXRa partner concentration 90 nM)"
observationtype = "PBM binding z-score"
resultnumber = 2.16

[[record]]
biosequence = "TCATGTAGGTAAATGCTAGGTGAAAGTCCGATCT"
assayedtarget = "PPARg:RXRa IVT, anti-PPARg (NR concentration 270 nM, RXRa partner concentration 90 nM)"
observationtype = "PBM binding z-score"
resultnumber = 3.44

[[record]]
biosequence = "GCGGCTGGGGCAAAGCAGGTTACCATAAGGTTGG"
assayedtarget = "PPARg:RXRa IVT, anti-PPARg (NR concentration 270 nM, RXRa partner concentration 90 nM)"
observationtype = "PBM binding z-score"
resultnumber = 0.597

[[record]]
biosequence = "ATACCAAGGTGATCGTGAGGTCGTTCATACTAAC"
assayedtarget = "PPARg:RXRa IVT, anti-PPARg (NR concentration 270 nM, RXRa partner concentration 90 nM)"
observationtype = "PBM binding z-score"
resultnumber = 1.54

[[record]]
biosequence = "CCTCGGAGGACAACAGGAGGTCAGAGATGCCAGA"
assayedtarget = "PPARg:RXRa IVT, anti-PPARg (NR concentration 270 nM, RXRa partner concentration 90 nM)"
observationtype = "PBM binding z-score"
resultnumber = 0.314


PBM binding z-score in this record for `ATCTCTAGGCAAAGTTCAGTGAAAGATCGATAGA` : 0.697

PBM binding z-score in this record for `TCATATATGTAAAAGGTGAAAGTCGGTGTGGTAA` : 2.83

PBM binding z-score in this record for `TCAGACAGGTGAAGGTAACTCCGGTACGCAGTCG` : 1.09

PBM binding z-score in this record for `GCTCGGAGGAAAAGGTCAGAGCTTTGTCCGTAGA` : 1.11
